Where do these numbers come from? They come from ChEMBL document CHEMBL1201862.

Recorded GI50 values for a group of compounds are listed next.
System: COLO 205
Assay: NCI tumour cell line growth inhibition, 48 h
Activity calls are given as the source filed them. No stated cut-off is given here; in the data, active = GI50 up to about 1.1 µM and inactive = higher.

>  <COMPOUND>
COc1cc(C)c(C2NC(=O)c3ccccc3N2)cc1C (stereo not given)

>  <GI50>
0.313 µM (active)

$$$$
>  <COMPOUND>
S=C(Nc1ccccc1)N(/N=C/C=C/c1ccccc1)c1nnc(-c2ccccc2)c(-c2ccccc2)n1

>  <GI50>
> 100 µM (inactive)

$$$$
>  <COMPOUND>
NC(=O)c1cc(C2OC(CO)C(O)C2O)nn1-c1ccc([N+](=O)[O-])cc1 (stereo not given)

>  <GI50>
> 100 µM (inactive)

$$$$
>  <COMPOUND>
COc1ccc(/C=N/c2ccc(-c3nc4ccccc4[nH]3)cc2)cc1OC

>  <GI50>
> 100 µM (inactive)

$$$$
>  <COMPOUND>
COc1cccc2c1Cc1cc(-c3ccccc3)[n+](C)n1-2

>  <GI50>
1.38 µM (inactive)

$$$$
